assay method text: Aqueous solubility at room temperature
Type: physicochemical
condition info: water; read-out: S

compound	measure unit	qualifier operator	solubility
Br.N/C(=N\c1ccc(C(=O)O)cc1)N1Cc2cccc3c2C(CCC3)C1 (configuration not stated)	µg/mL	<	3000
Cl.N/C(=N\O)N1Cc2cccc3c(Cl)ccc(c23)C1	µg/mL	=	3000
N#CNC(=N)N1Cc2cccc3c2C(CCC3)C1 (configuration not stated)	µg/mL	<	3000
C/N=C(\NC)N1Cc2cccc3c2C(CCC3)C1 (configuration not stated)	µg/mL	=	20000
CN(C)c1ccc(NC(=N)N2Cc3cccc4c3C(CCC4)C2)cc1.Cl (configuration not stated)	µg/mL	=	4000
Cc1ccc2c3c1CCCC3CN(C(=N)N)C2.Cl (configuration not stated)	µg/mL	=	16000
N=C(Nc1ccc(Cl)cc1)N1Cc2cccc3c2C(CCC3)C1 (configuration not stated)	µg/mL	<	4000

----------
Overview of reported solubility across a group of compounds:
assay method text: Aqueous solubility at room temperature
Type: physicochemical
condition info: water; read-out: S

compound	qualifier operator	solubility, mg/mL
C/N=C(\N)N1Cc2cccc3c2C(CCC3)C1 (configuration not stated)	<	3
Cl.N=C(N)N1Cc2cccc3c2C(CCC3)C1 (configuration not stated)	=	60
CN(C)/N=C(/N)N1Cc2cccc3cccc(c23)C1.Cl	=	25
C/N=C(/NC)N1Cc2cccc3cccc(c23)C1	=	25
Cl.N/N=C(/N)N1Cc2cccc3c2C(CCC3)C1 (configuration not stated)	=	60
Cc1ccc2c3c1CCCC3CN(C(=N)NO)C2.Cl (configuration not stated)	=	18
COc1cc2c3c(cccc3c1)CN(C(=N)NO)C2.Cl	=	18
COc1cc2c3c(c1OC)CCCC3CN(C(=N)NO)C2.Cl (configuration not stated)	>	50
COc1ccc2c3c1CCCC3CN(C(=N)NO)C2.Cl (configuration not stated)	=	5
Cl.N/N=C(/N)N1Cc2cccc3cccc(c23)C1	=	10
N=C(Nc1ccccc1)N1Cc2cccc3c2C(CCC3)C1 (configuration not stated)	<	3
Cl.N=C(Nc1ccc(C(N)=O)cc1)N1Cc2cccc3c2C(CCC3)C1 (configuration not stated)	<	3

----------
assay method text: Aqueous solubility at room temperature
Assay type: physicochemical
condition info: water; read-out: S

compound	measure unit	qualifier operator	solubility
COc1ccc2c3c1CCCC3CN(C(=N)N)C2.Cl (configuration not stated)	µg/mL	=	17000
COc1ccc(NC(=N)N2Cc3cccc4c3C(CCC4)C2)cc1 (configuration not stated)	µg/mL	<	3000
COc1ccc(NC(=N)N2Cc3cccc4cccc(c34)C2)cc1	µg/mL	<	5000
Cl.N/C(=N\O)N1Cc2cccc3c2C(CCC3)C1 (configuration not stated)	µg/mL	=	12000
CC(=O)NC(=N)N1Cc2cccc3cccc(c23)C1.Cl	µg/mL	=	35000
Cl.N/C(=N\O)N1Cc2cccc3cccc(c23)C1	µg/mL	=	4000
N/C(=N\c1ccc(N)cc1)N1Cc2cccc3c2C(CCC3)C1 (configuration not stated)	µg/mL	<	5000
Cl.Cl.N/C(=N\c1ccc(N)cc1)N1Cc2cccc3cccc(c23)C1	µg/mL	=	60000
N=C(Nc1ccc(S(N)(=O)=O)cc1)N1Cc2cccc3c2C(CCC3)C1 (configuration not stated)	µg/mL	<	3000
Cl.N=C(N)N1Cc2cccc3cccc(c23)C1	µg/mL	=	10000
Cc1ccc2c3c(cccc13)CN(C(=N)NO)C2.Cl	µg/mL	=	5000
Cl.N=C(N)N1Cc2cccc3c(Cl)ccc(c23)C1	µg/mL	=	2500
